- Tested on: Zika virus NS2B-NS3 protease (unlinked complex)
- method_notes: Primary screen GU Rhodamine qHTS for Zika virus inhibitors: Unlinked NS2B-NS3 protease assay (AID 1347159); note: nearly all actives have a fitted effect of over 60% in size
- test_settings: Recombinant ZIKV NS2B-NS3 protease, Rhodamine110 substrate fluorescence; series mostly up to 107 µM
Results filed as inconclusive are left out. Active and inactive are the calls of the source. Calls come from the whole dose curve; as a rule, active = well fitted inhibition curve with a large enough effect; inconclusive = small, poorly fitted or top-dose-only effect; inactive = no such curve, though single readings can be large or run the other way.
Your reply should match one of these outcome classes. active, inactive

>>> label_class("CC[C@H](NC(=O)[C@H](CS(=O)(=O)CC1CC1)N[C@@H](c1ccc(F)cc1)C(F)(F)F)C(=O)C(=O)NC1CC1")
"inactive"
>>> label_class("CC(=O)NC1=NN(C(C)=O)C(C)(c2ccccc2)S1 (stereo not drawn)")
"inactive"
>>> label_class("Cc1ccccc1C#Cc1ccc(CCC(=O)O)cc1")
"active"

Prompt: In this assay, the call recorded for CNS(=O)(=O)c1ccccc1Nc1nc(Nc2ccc(N3CCN(C)CC3)cc2OC)ncc1Cl was what?
Completion: inactive
